Listing of recorded CTG-3D luminescence at 96 h by entry.
Tested on: HCI-012 (organoid from a breast cancer xenograft)
Test: CTG-3D luminescence at 96 h relative to day-0 seeding control (ratio to day 0); higher = more growth / less cytotoxicity; PDxO 3D drug screen (set 2), 96 h, CTG-3D normalised to day-0 seeding control.
Settings: 1 µM; days in culture: 256
Just the number.

As a guide, the following entries are already answered.
{"columns": ["compound", "obs_value"],
 "data": [
  ["Nc1cc(C(F)(F)F)c(-c2cc(N3CCOCC3)nc(N3CCOCC3)n2)cn1 [buparlisib]", 1.05],
  ["C[C@@H](Nc1cc(F)cc(F)c1)c1cc(C(=O)N(C)C)cc2c(=O)cc(N3CCOCC3)oc12 [AZD-8186]", 1.35],
  ["O=C(c1cc(Cc2n[nH]c(=O)c3ccccc23)ccc1F)N1CCN(C(=O)C2CC2)CC1 [olaparib]", 2.12],
  ["CC(C)n1nc(-c2ccc3oc(N)nc3c2)c2c(N)ncnc21 [sapanisertib]", 0.395]
]}

Here's the next entry for you.
Item under review: CS(=O)(=O)CCNCc1ccc(-c2ccc3ncnc(Nc4ccc(OCc5cccc(F)c5)c(Cl)c4)c3c2)o1 [lapatinib] . Reported CTG-3D luminescence at 96 h?
1.63
